assay.text: Pharmacokinetics of compounds in rats (oral)
Assay type: in vivo, SD rats
condition.summary: male SD rats, 100 mg/kg
endpoint.label: Cmax (ng/mL)

CC1(C)OC(C)(C)c2cc(C3CCC4(COc5nc(N6C[C@H]7CC[C@@H](C6)N7)c6cnc(-c7cc(O)cc8ccccc78)c(F)c6n5)CCCN34)ccc21 (stereo partly shown) [Example 149]	148
Oc1cc(-c2ncc3c(N4C[C@H]5CC[C@@H](C4)N5)nc(OCC45CCCN4C(c4ccc6c(c4)COC6)CC5)nc3c2F)c2ccccc2c1 (stereo partly shown) [Example 43]	164
Nc1cc(Cl)c(C(F)(F)F)c(-c2ncc3c(N4C[C@H]5CC[C@@H](C4)N5)nc(OCC45CCCN4C(c4ccc6c(c4)OC(F)(F)O6)CC5)nc3c2F)c1 (stereo partly shown) [Example 161]	193
Oc1cc(-c2ncc3c(N4C[C@H]5CC[C@@H](C4)N5)nc(OCC45CCCN4C(c4ccc6c(c4)C4CCC6O4)CC5)nc3c2F)c2c(F)c(F)ccc2c1 (stereo partly shown) [Example 153]	156
